Assay: Binding affinity to N-terminal NT-647-NHS labeled NM23-H2 D121A mutant (unknown origin) after 30 mins by MST analysis
Design: species or system Homo sapiens
property name: pKd
By convention, pKd is the negative base-10 log of a molar concentration.

Summary for this compound, CN(C)CCCNc1cc2nc3n(c(=O)c2cc1F)CC/C3=C\c1ccc(OCc2ccccc2)cc1O : pKd is 4.03

###

Target: Nucleoside diphosphate kinase B (Homo sapiens, UniProt P22392, D54A)
Sequence (P22392 whole entry D54A): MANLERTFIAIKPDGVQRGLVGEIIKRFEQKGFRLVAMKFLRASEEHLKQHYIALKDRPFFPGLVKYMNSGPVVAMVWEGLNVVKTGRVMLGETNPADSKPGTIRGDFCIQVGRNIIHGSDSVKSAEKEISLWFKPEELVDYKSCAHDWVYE
Test: Binding affinity to NM23-H2 D54A mutant (unknown origin) by SPR analysis
property name: Kd (µM)
# value in µM; strip the unit string

Lookup result for CN(C)CCCNc1cc2nc3n(c(=O)c2cc1F)CC/C3=C\c1ccc(OCc2ccccc2)cc1O ; measured Kd: 18.4

###

Assay: Binding affinity to biotin-labeled Pu22 c-myc G-quadruplex DNA (unknown origin) by SPR analysis
property name: Kd (µM)

INSERT INTO assay_data (line_notation, uom, reported_measurement) VALUES
  ('CCN(CC)CCCNC(=O)c1ccc(/C=C2\CCn3c2nc2cc(NCCN4CCCC4)c(F)cc2c3=O)cc1', 'µM', 3.8);

[A] O=C(NCCCN1CCCC1)c1ccc(/C=C2\CCn3c2nc2cc(NCCN4CCCC4)c(F)cc2c3=O)cc1
[B] CC(=O)Oc1ccc(/C=C2\CCn3c2nc2cc(NCCCN(C)C)c(F)cc2c3=O)cc1
# compare Kd for A vs B ; return the one with the smaller value Pick one; state its label.
A

###

Target: Nucleoside diphosphate kinase B (Homo sapiens, UniProt P22392, G113F)
Sequence (P22392 whole entry G113F): as the sequence (P22392 whole entry D54A) above, with A54D, G113F counted along it
Experiment: Binding affinity to N-terminal NT-647-NHS labeled NM23-H2 G113F mutant (unknown origin) after 30 mins by MST analysis
property name: Kd (µM)
The answer is to be given in µM; state only the numeric part.

Lab note: measured Kd of CN(C)CCCNc1cc2nc3n(c(=O)c2cc1F)CC/C3=C\c1ccc(OCc2ccccc2)cc1O was 13.5

###

Target: Nucleoside diphosphate kinase B (Homo sapiens, UniProt P22392, G113F)
Experiment: Binding affinity to NM23-H2 G113F mutant (unknown origin) by SPR analysis
property name: pKd
Conceptually, pKd converts a concentration in mol/L into minus its log10.

// CN(C)CCCNc1cc2nc3n(c(=O)c2cc1F)CC/C3=C\c1ccc(OCc2ccccc2)cc1O : pKd value = 4.81

###

Biological target: Nucleoside diphosphate kinase B (Homo sapiens, UniProt P22392)
Sequence (P22392 whole entry): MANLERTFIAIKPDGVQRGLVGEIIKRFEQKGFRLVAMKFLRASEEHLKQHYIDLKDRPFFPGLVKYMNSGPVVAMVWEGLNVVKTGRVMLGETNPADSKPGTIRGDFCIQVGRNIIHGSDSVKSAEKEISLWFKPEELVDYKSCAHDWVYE
Assay: Binding affinity to N-terminal NT-647-NHS labeled NM23-H2 (unknown origin) after 30 mins by MST analysis
pKd: −log10 of the molar value.
property name: pKd

INSERT INTO measurements (line_notation, study_target, reported_measurement) VALUES
  ('O=C(CCN1CCCC1)Nc1ccc(/C=C2\CCCn3c2nc2cc(NC(=O)CCN4CCCC4)ccc2c3=O)cc1', 'Nucleoside diphosphate kinase B (Homo sapiens, UniProt P22392)', 4.61);

[I] CCCOc1ccc(/C=C2\CCn3c2nc2cc(NCCCN(C)C)c(F)cc2c3=O)cc1
[II] CN(C)CCCNc1cc2nc3n(c(=O)c2cc1F)CC/C3=C\c1ccc(O)c(O)c1
[III] CN(C)CCCNc1cc2nc3n(c(=O)c2cc1F)CC/C3=C\c1ccc(OCc2ccccc2)cc1O
[IV] O=c1c2cc(F)c(N3CCOCC3)cc2nc2n1CC/C2=C\c1ccc(OCc2ccccc2)cc1O
[V] CN(C)CCNc1cc2nc3n(c(=O)c2cc1F)CC/C3=C\c1ccc(OCc2ccccc2)cc1O
Please list these in order of increasing pKd. Thank you! Please, when replying, give the labels in the order that was requested.
IV, I, II, V, III

[I] CCN(CC)CCCNc1cc2nc3n(c(=O)c2cc1F)CC/C3=C\c1ccc(OC)c(OC)c1
[II] CCN(CC)CCCNc1cc2nc3n(c(=O)c2cc1F)CC/C3=C\c1ccc(N(CC)CC)cc1O
Select one. Lower pKd: I or II Reply briefly: the label of your chosen item.
I

[a] CCN(CC)CCCNc1cc2nc3n(c(=O)c2cc1F)CC/C3=C\c1cc(OC)c(OC)c(OC)c1
[b] CN(C)CCCNc1cc2nc3n(c(=O)c2cc1F)CC/C3=C\c1ccc(OCc2ccccc2)c(O)c1
[c] CCN(CC)c1ccc(/C=C2\CCn3c2nc2cc(NCCN(C)C)c(F)cc2c3=O)cc1
[d] CCN(CC)CCCNc1cc2nc3n(c(=O)c2cc1F)CC/C3=C\c1ccccc1OC
Sort these molecules on pKd so the largest reading comes first. I'd appreciate it if you listed the labels in the requested order.
b, a, c, d

[I] CN(C)CCCNc1cc2nc3n(c(=O)c2cc1F)CC/C3=C\c1ccc(/C=C/c2ccccn2)cc1
[II] COc1cc(/C=C2\CCn3c2nc2cc(NCCCN(C)C)c(F)cc2c3=O)cc(OC)c1OC
[III] O=c1c2cc(F)c(NCCCN3CCOCC3)cc2nc2n1CC/C2=C\c1ccc(F)cc1
Rank by pKd (largest to smallest). Order the labels as requested and list them.
I, II, III

[I] COc1ccc(/C=C2\CCn3c2nc2cc(NCCCN(C)C)c(F)cc2c3=O)cc1OC
[II] CCN(CC)CCCNc1cc2nc3n(c(=O)c2cc1F)CC/C3=C\c1ccc(F)cc1
[III] O=c1c2cc(F)c(NCCCN3CCCC3)cc2nc2n1CC/C2=C\c1ccc(OCc2ccccc2)cc1O
Exam item: list the entries in increasing order of pKd. Please respond with the labels ordered as the question requires.
II, I, III

[I] O=c1c2cc(F)c(NCCCN3CCOCC3)cc2nc2n1CC/C2=C\c1ccc(OCc2ccccc2)cc1O
[II] CCN(CC)CCCNc1cc2nc3n(c(=O)c2cc1F)CC/C3=C\c1ccc(N(CC)CC)cc1
Hey, between I and II which has a smaller measured pKd? Pick one and reply with its label.
II
(II: 4.31, I: 4.77)

[A] CCN(CC)CCCNc1cc2nc3n(c(=O)c2cc1F)CC/C3=C\c1ccc(OC)cc1
[B] CCN(CC)CCCNc1cc2nc3n(c(=O)c2cc1F)CC/C3=C\c1ccc(N2CCOCC2)cc1
Among A and B , which shows a numerically higher pKd result? Use the label to indicate which entry you chose.
A

[A] CN(C)CCCNc1cc2nc3n(c(=O)c2cc1F)CC/C3=C\c1ccc(Oc2ccccc2)cc1
[B] COc1ccc(/C=C2\CCn3c2nc2cc(NCCCN4CCOCC4)c(F)cc2c3=O)cc1
// compare measured pKd, left A , right B , return larger Indicate your choice by writing its label.
A
(A: 4.79, B: 4.59)
